study.target: PAR1 (Homo sapiens)
Sequence (P25116 22-425): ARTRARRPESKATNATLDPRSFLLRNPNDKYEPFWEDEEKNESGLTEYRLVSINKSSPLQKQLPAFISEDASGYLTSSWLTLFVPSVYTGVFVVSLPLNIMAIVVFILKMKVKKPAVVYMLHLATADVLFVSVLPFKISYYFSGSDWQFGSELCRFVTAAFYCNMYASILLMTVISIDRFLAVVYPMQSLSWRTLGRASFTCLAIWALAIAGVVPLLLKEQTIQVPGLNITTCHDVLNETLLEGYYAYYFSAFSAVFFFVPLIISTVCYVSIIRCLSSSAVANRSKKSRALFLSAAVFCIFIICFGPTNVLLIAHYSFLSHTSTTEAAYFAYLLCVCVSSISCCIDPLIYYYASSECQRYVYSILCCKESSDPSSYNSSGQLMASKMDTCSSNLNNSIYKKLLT
assay.explanation: Calcium ion influx experiment (FLIPR), PAR1 inhibition activity, HEK293-Ga15-PAR1 cell strain, agonist haTRAP
condition.label: HEK293-Ga15-PAR1 cells, calcium influx, agonist haTRAP 3 μM, 4-PL fit
property.label: pIC50
One number for each entry, as −log10 of the molar value.

For orientation, consider the following solved cases.
C[C@@]12CC[C@@H](O)[C@@](C)(C(=O)O)[C@H]1CCC1(CO1)[C@H]2/C=C/c1ccc(-c2cccc(F)c2)cn1 (stereo partly drawn) [Compound I-8]    4.50
C[C@]1(CO)[C@H]2CCC(CO)[C@@H](CCc3ccc(-c4cccc(F)c4)cn3)[C@]2(C)CC[C@H]1O (stereo partly drawn) [Compound I-3]    5.05
C[C@@]1(C=O)[C@H](O)CC[C@@]2(C)[C@H](/C=C/c3ccc(-c4cccc(F)c4)cn3)C3(CC[C@H]12)CO3 (stereo partly drawn) [Compound I-7]    5.45
CO[C@@H]1CC[C@]2(C)[C@H](CCC3(CO3)[C@H]2/C=C/c2ccc(-c3cccc(F)c3)cn2)[C@]1(C)CO (stereo partly drawn) [Compound I-6]    4.96

List pIC50 for every entry below, keeping the order given.
1. C[C@@]1(C(=O)O)C(=O)CC[C@@]2(C)[C@H](/C=C/c3ccc(-c4cccc(F)c4)cn3)C3(CC[C@H]12)CO3 (stereo partly drawn) [Compound I-10]
2. C[C@]1(CO)[C@H]2CCC3(CO3)[C@@H](/C=C/c3ccc(-c4cccc(F)c4)cn3)[C@]2(C)CC[C@H]1O (stereo partly drawn) [Compound I-1]

## Result
[4.71, 5.11]
